// data source = patent US10947202B2

Listing: Total impurities (%) of selected compounds
test: Stability experiment (storage of crystal forms, HPLC)
Format: physicochemical
measurement.context: 40° C. 75% RH 14 d
Write down the numeric answer in % and omit the unit.

Below: 3 compounds and their reported Total impurities (%).
>  <compound>
Cc1cc(N2CCN(Cc3cc(F)c(C(=O)NS(=O)(=O)C4CC4)cc3Cl)CC2)ccc1Cl [crystal form E-3]

>  <value.type>
Total impurities (%)

>  <recorded.value>
0.29

$$$$
>  <compound>
Cc1cc(N2CCN(Cc3cc(F)c(C(=O)NS(=O)(=O)C4CC4)cc3Cl)CC2)ccc1Cl [crystal form D]

>  <value.type>
Total impurities (%)

>  <recorded.value>
0.09

$$$$
>  <compound>
Cc1cc(N2CCN(Cc3cc(F)c(C(=O)NS(=O)(=O)C4CC4)cc3Cl)CC2)ccc1Cl [crystal form A]

>  <value.type>
Total impurities (%)

>  <recorded.value>
0.17

$$$$

Proceed to the following item.
Return reported Total impurities (%). Input compound: Cc1cc(N2CCN(Cc3cc(F)c(C(=O)NS(=O)(=O)C4CC4)cc3Cl)CC2)ccc1Cl [crystal form F]
0.10
